tested on: Mycobacterium tuberculosis; experiment: Antitubercular activity against Mycobacterium tuberculosis H37Rv in anaerobic condition after 7 days by low oxygen recovery assay; type: functional; details: 168 h
MIC strictly under 3 µM means class 1; at 3 µM or over means class 0.

Below are worked cases with known answers.
INSERT INTO results (structure_as_smiles, classification) VALUES
  ('N#Cc1ccc(-c2cccc(CO[C@@H]3COc4nc([N+](=O)[O-])cn4C3)c2)cc1', 'class 0'),
  ('O=[N+]([O-])c1cn2c(n1)OC[C@@H](OCc1ccc(-c3ccccc3OCCCO)cc1)C2', 'class 1'),
  ('CC(C)(C)OCc1ccc(-c2ccc(CO[C@@H]3COc4nc([N+](=O)[O-])cn4C3)cc2)cc1', 'class 0'),
  ('O=[N+]([O-])c1cn2c(n1)OC[C@@H](OCc1ccc(-c3ccc(OC(F)(F)F)c(Cl)c3)cc1)C2', 'class 1');

Note: attention shifts to another entry.
Identify whether the compound O=[N+]([O-])c1cn2c(n1)OC[C@@H](OCc1cccc(-c3ccccc3OC(F)(F)F)c1)C2 records MIC below 3 µM. class 0
